B1: OR4K15 (parent)
chain: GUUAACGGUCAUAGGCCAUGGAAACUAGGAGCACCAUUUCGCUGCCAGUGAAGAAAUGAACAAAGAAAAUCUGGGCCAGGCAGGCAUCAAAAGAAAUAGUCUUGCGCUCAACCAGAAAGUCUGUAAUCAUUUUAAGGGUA

variants of: B1; test: self-cleavage, relative activity (ratio to wild type); higher = more cleavage; in vitro, sequencing; the parent is a self-cleaving ribozyme
I would appreciate it if you labelled entries Y when self-cleavage is 1 or higher, otherwise N.

INSERT INTO measurements (chain, class) VALUES
  ('GGUAACGGUCAUAGGCCAUGGAAACUAGGAGCACCAUUUCGCUGCCAGUGAAGAAGUGAACAAAGAAAAUCUGGGCCAGGCAGGCAUCAAAAGAAAUAGUCUUGCGCUCAACCAGAAAGUCUGUAAUCAUUUUAAGGGUA [U2G A56G]', 'Y'),
  ('GUUAGCGGUCAUAGGCCAUGGAAACUAGGAGCACCAUUUCGCUGCCAGUGAAGAAAUGAACAAAGAGAAUCUGGGCCAGGCAGGCAUCAAAAGAAAUAGUCUUGCGCUCAACCAGAAAGUCUGUAAUCAUUUUAAGGGUA [A5G A67G]', 'N'),
  ('GUUAACGGUCAUAGGCCAUGGAAACUAGGAGCACCAUUUCGCUGCCAGCGAAGAAAUGAACAAAGAAAAUCUGGGCCAGGCAGGCAUCAAAAGAAAUAGUCUUGCGCUCAACCAGAAAGUCUGUAAUCAUUUUAAGGAUA [U49C G138A]', 'Y'),
  ('GUUAACGGUCAUAGGCCAUGGAAACUAGGAGCACCAUUACGCUGCCAGUGAAGAAAUGAACAAAGAAAAUCUGGGCCAGGCAGGCAUCAAAAGAAAUAGUCUUGCGCUCAACCAGAAAGUCUGUAAUCAUUUUAAGAGUA [U39A G137A]', 'Y'),
  ('GUUAACGGUCAUAGGCCAUGGAAACUAGGAGCACCAUUUCGCUGCCAGUGAAGAAAUGAACAAAGAAAAUCUGUGCCAGGCAGGCAUCAAAAGAAAUAGUCUUGCGCUCAACCAGAAGGUCUGUAAUCAUUUUAAGGGUA [G74U A118G]', 'N'),
  ('GUUAACGGUCAUAUGCCAUGGAAACUAGGAGCUCCAUUUCGCUGCCAGUGAAGAAAUGAACAAAGAAAAUCUGGGCCAGGCAGGCAUCAAAAGAAAUAGUCUUGCGCUCAACCAGAAAGUCUGUAAUCAUUUUAAGGGUA [G14U A33U]', 'Y'),
  ('GUUAACGGUCAUAGGCCAUGGAAACUAGGAGCACCAUUUCGCUGCCCGUGAAGAAAUGAACAAAGAGAAUCUGGGCCAGGCAGGCAUCAAAAGAAAUAGUCUUGCGCUCAACCAGAAAGUCUGUAAUCAUUUUAAGGGUA [A47C A67G]', 'N'),
  ('GUUAACGGUCAUAGGCCAUGGAAACUAGGAGCACCAUCUCGCUGCCAGUGAAGAAAUGAACAAAGAAAAUCUGGGCCAGGCAGGCAUCAAAAGAAAUUGUCUUGCGCUCAACCAGAAAGUCUGUAAUCAUUUUAAGGGUA [U38C A98U]', 'Y'),
  ('GUUAACGGUCAUAGGCCAUGGAAACUAGGAGCACCAUUUCGCUGCCAGUGAAGAAAUGAACAAAGAAAAUCUGGGCCAGGCAGGCAUCAAAAGAAAUAGUCUUGCGCUCAACCAGAAAGUCUGCAGUCAUUUUAAGGGUA [U124C A126G]', 'N');
